experiment: Mouse pharmacokinetics; format: in vivo, ICR mice; conditions: ICR, mouse, plasma, po, 10 mg/kg, Mouse i.g. 10 mpk; read-out: Cmax
MEASUREMENT_TYPE: Cmax (ng/mL)

[1] N#Cc1ccc(O[C@H]2CC[C@H](NC(=O)c3ccc(N4CCC(CN5CCc6c(ccc7c(C8CCC(=O)NC8=O)noc67)C5)CC4)nn3)CC2)cc1Cl (some centres unmarked)
[2] N#Cc1ccc(O[C@H]2CC[C@H](NC(=O)c3ccc(N4CCC(CN5Cc6ccc7c(C8CCC(=O)NC8=O)noc7c6C5)CC4)nn3)CC2)cc1Cl (some centres unmarked)
Q. Select the item with the higher value of Cmax from the options 1 and 2 listed. Respond with the label that goes with your answer.
A. 2

###

test: Mouse pharmacokinetics; assay type: in vivo, ICR mice; conditions: ICR, mouse, plasma, iv, 1 mg/kg, Mouse i.v. 1 mpk; read-out: AUC
MEASUREMENT_TYPE: AUC (ng·h/mL)

Field: example entries. Status: answers known.
- COMPOUND: "N#Cc1ccc(O[C@H]2CC[C@H](NC(=O)c3cnc(N4CCC(CN5Cc6ccc7c(C8CCC(=O)NC8=O)noc7c6C5)CC4)nc3)CC2)cc1Cl (some centres unmarked) [Compound 119]"
  AUC [ng·h/mL]: 2720
- COMPOUND: "N#Cc1ccc(O[C@H]2CC[C@H](NC(=O)c3ccc(N4CCC(CN5CCc6c(ccc7c(C8CCC(=O)NC8=O)noc67)C5)CC4)nn3)CC2)cc1Cl (some centres unmarked) [Compound 19]"
  AUC [ng·h/mL]: 2600
- COMPOUND: "N#Cc1ccc(O[C@H]2CC[C@H](NC(=O)c3ccc(N4CCC(CN5CCc6ccc7c(C8CCC(=O)NC8=O)noc7c6C5)CC4)nn3)CC2)cc1Cl (some centres unmarked) [Compound 18]"
  AUC [ng·h/mL]: 5930

[1] N#Cc1ccc(O[C@H]2CC[C@H](NC(=O)c3ccc(N4CCN(CC5Cc6ccc7c(C8CCC(=O)NC8=O)noc7c6C5)CC4)nn3)CC2)cc1Cl (some centres unmarked) [Compound 26]
[2] N#Cc1ccc(O[C@H]2CC[C@H](NC(=O)c3ccc(N4CCC(CN5Cc6ccc7c(C8CCC(=O)NC8=O)noc7c6C5)CC4)nn3)CC2)cc1Cl (some centres unmarked) [Compound 17]
Q. For the pair 1 and 2 , which entry has the numerically smaller recorded AUC? Give the label under which the chosen entry appears.
A. 2

###

test: Mouse pharmacokinetics; type: in vivo, ICR mice; conditions: ICR, mouse, plasma, po, 10 mg/kg, Mouse i.g. 10 mpk
MEASUREMENT_TYPE: half-life (h)

- COMPOUND: "N#Cc1ccc(O[C@H]2CC[C@H](NC(=O)c3ccc(N4CCC(CN5Cc6ccc7c(C8CCC(=O)NC8=O)noc7c6C5)CC4)nn3)CC2)cc1Cl (stereo partly shown)"
  MEASUREMENT_TYPE: "half-life"
  RESULT_UNIT: "h"
  MEASURED: 6.82

[P] N#Cc1ccc(O[C@H]2CC[C@H](NC(=O)c3ccc(N4CCC(CN5CCc6ccc7c(C8CCC(=O)NC8=O)noc7c6C5)CC4)nn3)CC2)cc1Cl (stereo partly shown)
[Q] N#Cc1ccc(O[C@H]2CC[C@H](NC(=O)c3cnc(N4CCC(CN5Cc6ccc7c(C8CCC(=O)NC8=O)noc7c6C5)CC4)nc3)CC2)cc1Cl (stereo partly shown)
[R] N#Cc1ccc(O[C@H]2CC[C@H](NC(=O)c3ccc(N4CCC(CN5CCc6c(ccc7c(C8CCC(=O)NC8=O)noc67)C5)CC4)nn3)CC2)cc1Cl (stereo partly shown)
Q. // sort entries: half-life, high to low # answer = labels listed in requested order
A. R, Q, P
